- TARGET DESC: T1, EBV peptide on HLA-B*07:02 (human)
- T1 peptide: RPPIFIRRL
- METHOD: data from [122]; method not given; soluble, other
ATTRIBUTE MEASURED: Kd (nM)
Report as a plain number; the unit nM is understood.

Asked: Please list Kd recorded for the binder HD14 (TCR) alpha TRAV24*01 CDR3: AFGSSNTGKLI beta TRBV4-1*01 CDR3: ASSQDLFTGGYT
Given back: 1210
